Origin of values: patent US11787847B2

- SYSTEM_NAME: mouse receptor Olfr738 (Mus musculus, UniProt L7N1X7)
- Construct: cAMP HTRF
- Sequence (L7N1X7 1-311): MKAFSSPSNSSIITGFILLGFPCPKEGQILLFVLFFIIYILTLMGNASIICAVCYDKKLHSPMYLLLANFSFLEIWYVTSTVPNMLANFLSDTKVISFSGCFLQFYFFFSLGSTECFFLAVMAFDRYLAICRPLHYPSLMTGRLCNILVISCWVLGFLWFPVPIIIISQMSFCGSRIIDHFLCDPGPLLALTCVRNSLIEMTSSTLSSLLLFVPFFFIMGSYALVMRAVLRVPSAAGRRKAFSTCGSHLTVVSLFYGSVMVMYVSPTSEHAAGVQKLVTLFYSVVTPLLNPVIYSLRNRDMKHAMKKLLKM
- PROCEDURE_SUMMARY: cell-based dose-response, cAMP increase by HTRF, HEK293T cells (endogenous RTP1 activated) co-transfected with human Golf, Lucy-FLAG-Rho tagged receptor
- CONDITION_INFO: FIG. 2, Example 2, SEQ ID NO: 12
pEC50: −log10 of the molar value.
RECORDED_METRIC: pEC50

> print(dat)
                            molecule  numeric.readout
1  CSSSC [DMTS, dimethyl trisulfide]             3.43

----------
- SYSTEM_NAME: human receptor OR4C15 (Homo sapiens, UniProt Q8NGM1)
- Construct: The receptors were tagged with a FLAG®-Rho tag combination
- Sequence (Q8NGM1 with tags, fused parts or gaps): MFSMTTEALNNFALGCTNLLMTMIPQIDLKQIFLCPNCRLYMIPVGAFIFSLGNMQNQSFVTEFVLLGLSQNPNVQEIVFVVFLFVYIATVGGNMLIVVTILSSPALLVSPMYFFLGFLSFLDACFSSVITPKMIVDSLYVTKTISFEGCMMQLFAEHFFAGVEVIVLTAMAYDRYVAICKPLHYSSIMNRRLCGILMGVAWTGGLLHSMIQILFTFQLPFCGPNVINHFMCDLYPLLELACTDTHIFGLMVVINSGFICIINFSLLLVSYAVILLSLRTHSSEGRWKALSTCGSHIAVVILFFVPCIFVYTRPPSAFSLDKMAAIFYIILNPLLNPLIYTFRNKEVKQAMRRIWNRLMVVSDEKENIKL
- PROCEDURE_SUMMARY: cell-based dose-response, Ca2+ increase (Calcium 5 dye, FLIPR), HEK293T line stably expressing FLAG-Rho tagged receptor with human Gα15
- CONDITION_INFO: FIG. 3, Example 3, SEQ ID NO: 30, stable HEK293T
pEC50: −log10 of the molar value.
RECORDED_METRIC: pEC50

> print(dat)
                            compound  numeric.readout
1  CSSSC [DMTS, dimethyl trisulfide]             6.10

----------
- SYSTEM_NAME: mouse receptor Olfr738 (Mus musculus, UniProt L7N1X7)
- Construct: cAMP HTRF
- PROCEDURE_SUMMARY: cell-based dose-response, cAMP increase by HTRF, HEK293T cells (endogenous RTP1 activated) co-transfected with human Golf, Lucy-FLAG-Rho tagged receptor
- CONDITION_INFO: FIG. 5, Example 5, SEQ ID NO: 12
- Protocol: Functional dose-response experiments were performed to evaluate the level of DMTS activity of the modified cell line expressing individual putative DMTS receptors. […] Odorant-induced activity was detected by measuring the cAMP increase in the cytosol using an Homogeneous Time Resolved Fluorescence (HTRF) based kit (CisBio, cAMP dynamic 2 kit, cat. 62AM4PEJ). […]
RECORDED_METRIC: EC50 (µM)

> print(dat)
                            compound  numeric.readout
1    CSSC [DMDS, dimethyl disulfide]              355
2  CSSSC [DMTS, dimethyl trisulfide]              190

----------
- SYSTEM_NAME: mouse receptor Olfr1193 (Mus musculus)
- Construct: cAMP HTRF
- Sequence (A2AV13 1-318): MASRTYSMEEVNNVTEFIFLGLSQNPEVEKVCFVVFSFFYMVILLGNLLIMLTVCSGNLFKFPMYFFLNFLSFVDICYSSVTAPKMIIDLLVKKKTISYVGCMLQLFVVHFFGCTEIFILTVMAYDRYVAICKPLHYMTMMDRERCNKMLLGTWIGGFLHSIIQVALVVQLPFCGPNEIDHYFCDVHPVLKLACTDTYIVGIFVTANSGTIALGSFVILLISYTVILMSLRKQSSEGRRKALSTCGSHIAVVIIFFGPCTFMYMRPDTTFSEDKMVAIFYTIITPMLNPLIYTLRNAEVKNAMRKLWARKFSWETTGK
- PROCEDURE_SUMMARY: cell-based dose-response, cAMP increase by HTRF, HEK293T cells (endogenous RTP1 activated) co-transfected with human Golf, Lucy-FLAG-Rho tagged receptor
- CONDITION_INFO: FIG. 5, Example 5, SEQ ID NO: 2
# EC50 annotations
RECORDED_METRIC: EC50 (µM)

> print(dat)
                            compound  recorded.metric  numeric.readout
1  CSSSC [DMTS, dimethyl trisulfide]             EC50               16
2    CSSC [DMDS, dimethyl disulfide]             EC50               40

----------
- SYSTEM_NAME: mouse receptor Olfr166 (Mus musculus, UniProt Q0VEL6)
- Construct: cAMP HTRF
- Sequence (Q0VEL6 1-312): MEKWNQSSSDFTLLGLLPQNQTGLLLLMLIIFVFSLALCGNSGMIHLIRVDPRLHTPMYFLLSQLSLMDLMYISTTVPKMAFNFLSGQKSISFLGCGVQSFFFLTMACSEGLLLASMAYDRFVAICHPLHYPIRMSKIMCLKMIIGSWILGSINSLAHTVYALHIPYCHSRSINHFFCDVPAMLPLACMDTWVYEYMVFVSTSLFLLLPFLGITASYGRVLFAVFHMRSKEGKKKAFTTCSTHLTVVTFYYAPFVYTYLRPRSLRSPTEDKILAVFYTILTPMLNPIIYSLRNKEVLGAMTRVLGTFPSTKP
- PROCEDURE_SUMMARY: cell-based dose-response, cAMP increase by HTRF, HEK293T cells (endogenous RTP1 activated) co-transfected with human Golf, Lucy-FLAG-Rho tagged receptor
- CONDITION_INFO: FIG. 2, Example 2, SEQ ID NO: 8
pEC50: −log10 of the molar value.
RECORDED_METRIC: pEC50

> print(dat)
                            compound  numeric.readout
1  CSSSC [DMTS, dimethyl trisulfide]             5.30

----------
- SYSTEM_NAME: OR4S2 (Homo sapiens)
- Sequence (Q8NH73 whole entry): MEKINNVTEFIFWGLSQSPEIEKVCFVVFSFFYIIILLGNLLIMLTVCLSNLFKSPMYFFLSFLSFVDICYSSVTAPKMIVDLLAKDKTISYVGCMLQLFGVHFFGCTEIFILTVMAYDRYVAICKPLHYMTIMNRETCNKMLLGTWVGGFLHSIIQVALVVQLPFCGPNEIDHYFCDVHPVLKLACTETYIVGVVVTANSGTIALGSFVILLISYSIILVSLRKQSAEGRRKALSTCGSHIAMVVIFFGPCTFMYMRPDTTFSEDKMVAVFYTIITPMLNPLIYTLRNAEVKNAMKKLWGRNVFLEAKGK
- PROCEDURE_SUMMARY: cell-based dose-response, cAMP increase by HTRF, HEK293T cells (endogenous RTP1 activated) co-transfected with human Golf, Rho-FLAG tagged receptor
- Design: the human receptors were tagged with a Rho-FLAG® tag combination; expressed in transfected cells
- CONDITION_INFO: FIG. 5, Example 5, SEQ ID NO: 42
pEC50: −log10 of the molar value.
RECORDED_METRIC: pEC50

> print(dat)
                            compound  numeric.readout
1  CSSSC [DMTS, dimethyl trisulfide]             6.49

----------
- SYSTEM_NAME: human receptor OR5AC2 (Homo sapiens)
- Construct: The receptors were tagged with a FLAG®-Rho tag combination; expressed in transfected cells
- Sequence (Q9NZP5 whole entry): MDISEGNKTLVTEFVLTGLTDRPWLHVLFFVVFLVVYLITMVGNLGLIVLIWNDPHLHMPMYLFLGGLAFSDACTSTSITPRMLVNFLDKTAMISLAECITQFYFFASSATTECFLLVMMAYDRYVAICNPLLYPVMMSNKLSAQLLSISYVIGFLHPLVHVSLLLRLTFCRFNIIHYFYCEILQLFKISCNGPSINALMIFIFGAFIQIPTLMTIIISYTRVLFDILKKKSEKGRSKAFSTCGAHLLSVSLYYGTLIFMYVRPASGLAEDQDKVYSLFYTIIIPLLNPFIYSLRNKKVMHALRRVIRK
- PROCEDURE_SUMMARY: cell-based dose-response, Ca2+ increase (Calcium 5 dye, FLIPR), HEK293T line stably expressing FLAG-Rho tagged receptor with human Gα15
- CONDITION_INFO: FIG. 3, Example 3, SEQ ID NO: 32, stable HEK293T
pEC50: −log10 of the molar value.
RECORDED_METRIC: pEC50

> print(dat)
                            molecule  recorded.metric  numeric.readout
1  CSSSC [DMTS, dimethyl trisulfide]            pEC50             4.57

----------
- SYSTEM_NAME: mouse receptor Olfr742 (Mus musculus)
- Construct: cAMP HTRF
- Sequence (A2RTP5 1-311): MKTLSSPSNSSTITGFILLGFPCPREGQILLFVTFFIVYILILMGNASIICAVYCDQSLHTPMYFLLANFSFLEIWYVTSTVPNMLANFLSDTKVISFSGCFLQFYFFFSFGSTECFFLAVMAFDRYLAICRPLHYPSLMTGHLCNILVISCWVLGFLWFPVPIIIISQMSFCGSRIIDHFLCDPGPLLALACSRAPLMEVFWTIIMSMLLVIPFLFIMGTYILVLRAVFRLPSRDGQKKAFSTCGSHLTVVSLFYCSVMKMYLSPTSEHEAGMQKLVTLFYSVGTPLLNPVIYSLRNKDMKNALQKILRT
- PROCEDURE_SUMMARY: cell-based dose-response, cAMP increase by HTRF, HEK293T cells (endogenous RTP1 activated) co-transfected with human Golf, Lucy-FLAG-Rho tagged receptor
- CONDITION_INFO: FIG. 2, Example 2, SEQ ID NO: 14
pEC50: −log10 of the molar value.
RECORDED_METRIC: pEC50

> print(dat)
                            compound  numeric.readout
1  CSSSC [DMTS, dimethyl trisulfide]             5.15

----------
- SYSTEM_NAME: mouse receptor Olfr169 (Mus musculus)
- Construct: cAMP HTRF
- Sequence (Q7TS53 1-313): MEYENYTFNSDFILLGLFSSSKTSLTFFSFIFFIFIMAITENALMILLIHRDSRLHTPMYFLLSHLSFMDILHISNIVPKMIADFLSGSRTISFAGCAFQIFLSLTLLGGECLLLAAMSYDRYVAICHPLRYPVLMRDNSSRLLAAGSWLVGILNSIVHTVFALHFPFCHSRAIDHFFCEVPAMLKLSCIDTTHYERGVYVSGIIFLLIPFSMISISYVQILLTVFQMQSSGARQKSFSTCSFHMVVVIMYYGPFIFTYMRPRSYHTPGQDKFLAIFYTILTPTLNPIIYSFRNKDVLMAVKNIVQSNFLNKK
- PROCEDURE_SUMMARY: cell-based dose-response, cAMP increase by HTRF, HEK293T cells (endogenous RTP1 activated) co-transfected with human Golf, Lucy-FLAG-Rho tagged receptor
- CONDITION_INFO: FIG. 2, Example 2, SEQ ID NO: 10
RECORDED_METRIC: EC50 (µM)

> print(dat)
                            compound  uom  numeric.readout
1  CSSSC [DMTS, dimethyl trisulfide]   µM               32

----------
- SYSTEM_NAME: mouse receptor Olfr1097 (Mus musculus)
- Construct: cAMP HTRF
- Sequence (Q8VGA2 1-315): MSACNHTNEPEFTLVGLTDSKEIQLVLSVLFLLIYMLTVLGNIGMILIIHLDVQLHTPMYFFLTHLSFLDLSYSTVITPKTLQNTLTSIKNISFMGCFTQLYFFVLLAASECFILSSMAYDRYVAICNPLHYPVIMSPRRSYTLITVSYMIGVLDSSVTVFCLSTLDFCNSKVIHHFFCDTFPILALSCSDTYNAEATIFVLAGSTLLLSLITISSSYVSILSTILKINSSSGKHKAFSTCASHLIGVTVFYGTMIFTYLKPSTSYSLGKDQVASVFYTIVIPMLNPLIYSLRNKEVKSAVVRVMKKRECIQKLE
- PROCEDURE_SUMMARY: cell-based dose-response, cAMP increase by HTRF, HEK293T cells (endogenous RTP1 activated) co-transfected with human Golf, Lucy-FLAG-Rho tagged receptor
- CONDITION_INFO: FIG. 2, Example 2, SEQ ID NO: 6
RECORDED_METRIC: EC50 (µM)

> print(dat)
                            compound  recorded.metric  uom  numeric.readout
1  CSSSC [DMTS, dimethyl trisulfide]             EC50   µM               17
